In this section, each of the binders is paired with its reported binding signal ratio to isotype control (11 nM).
- tested system: T1, full length human MSR1 with a C-terminal Myc tag on HEK293.Myc.hMSR1 cells (human, UniProt P21757 1-451)
- T1 construct: whole, on cells
- T1 sequence (looked up): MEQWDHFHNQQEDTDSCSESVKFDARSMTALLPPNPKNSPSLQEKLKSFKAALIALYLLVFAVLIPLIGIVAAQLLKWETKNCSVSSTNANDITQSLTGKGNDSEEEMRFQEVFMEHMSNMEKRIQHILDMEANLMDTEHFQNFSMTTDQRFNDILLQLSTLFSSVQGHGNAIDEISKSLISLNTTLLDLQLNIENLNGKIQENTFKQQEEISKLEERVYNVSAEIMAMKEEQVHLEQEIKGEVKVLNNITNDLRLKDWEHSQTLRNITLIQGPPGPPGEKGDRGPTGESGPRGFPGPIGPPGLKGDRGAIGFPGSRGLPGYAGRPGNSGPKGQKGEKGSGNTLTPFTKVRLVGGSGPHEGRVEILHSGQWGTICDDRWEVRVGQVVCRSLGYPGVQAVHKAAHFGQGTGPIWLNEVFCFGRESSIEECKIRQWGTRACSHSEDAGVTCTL
- method: ECL cell binding, HEK293.Myc.hMSR1
Just the number please, in fold, no unit attached.

# count of solved cases: 2
-- ask State the recorded binding signal ratio to isotype control (11 nM) for this entry: H1H27739P-N297Q (antibody, human IgG1, V domains shown, human IgG1 Fc with N297Q) VH: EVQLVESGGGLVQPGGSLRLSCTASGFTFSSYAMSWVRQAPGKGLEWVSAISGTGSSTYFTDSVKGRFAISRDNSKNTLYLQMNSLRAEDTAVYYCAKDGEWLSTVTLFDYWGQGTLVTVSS VL: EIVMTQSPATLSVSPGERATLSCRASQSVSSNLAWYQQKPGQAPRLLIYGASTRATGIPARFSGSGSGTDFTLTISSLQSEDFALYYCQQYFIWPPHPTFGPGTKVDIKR
-- reply 22

-- ask Bench note: what binding signal ratio to isotype control (11 nM) did H2aM25695N (antibody, mouse IgG2a, V domains shown, mouse IgG2a Fc) VH: QVQLQESGPGLVKPSETLSLTCTVTGGSISRNYWSWIRQPPGKGLEWIGYIYYSGSINYNPSLKSRVTISVDMSKNQFSLKLNSVTAADTAVYYCARDRWNWKYGMDVWGQGTTVIVSS VL: EIVLTQSPGTLSLSPGERATLSCRASQTVRNSYLAWYHQKPGQAPRLLIYGASSRATGIPDRFSGSGSGTDFTLTISRLEPEDFAVYYCQQYGSSYWTFGQGTKMEIKR show?
-- reply 35

Others:
-- ask Endpoint output: binding signal ratio to isotype control (11 nM) of H1H21234N-N297Q (antibody, human IgG1, V domains shown, human IgG1 Fc with N297Q) VH: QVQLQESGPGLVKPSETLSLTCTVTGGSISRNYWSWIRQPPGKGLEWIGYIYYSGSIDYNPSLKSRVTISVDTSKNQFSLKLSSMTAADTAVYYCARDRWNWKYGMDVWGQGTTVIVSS VL: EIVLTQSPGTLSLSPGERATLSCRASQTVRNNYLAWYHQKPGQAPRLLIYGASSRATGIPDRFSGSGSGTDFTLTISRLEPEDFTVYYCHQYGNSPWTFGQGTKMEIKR . Value?
-- reply 43
